# Read-out: xenobiotic metabolism (CYP1A1), CYP1A1 (gene 1543)
# Test name: CLD_CYP1A1_24hr: CellzDirect (CLD) Gene Expression Assay for xenobiotic metabolism (CYP1A1) at 24 hours (AID 2283673);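 further: CYP1A1 mRNA level by quantitative nuclease protection with chemiluminescence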
Results filed as inconclusive are left out. Calls of active or inactive are those of the source. How the source made its calls: active means hit-call score of the fitted dose curve at least 0.9, where 1 is the maximum; inconclusive means response in the unintended direction; inactive means score below 0.9.
Possible outcomes: active, inactive

Molecule: CC1=NNC(=O)N(/N=C/c2cccnc2)C1
Answer label: active
//
Molecule: FC(F)C(F)(F)OCC(Cn1cncn1)c1ccc(Cl)cc1Cl (configuration not stated)
Answer label: active
//
Molecule: CSc1nc(NC(C)C)nc(NC(C)C)n1
Answer label: active
//
Molecule: CC(C)=CC1C(C(=O)OCN2C(=O)C3=C(CCCC3)C2=O)C1(C)C (configuration not stated)
Answer label: inactive
//
Molecule: CSc1nnc(C(C)(C)C)c(=O)n1N
Answer label: inactive
//
Molecule: C[Si](Cn1cncn1)(c1ccc(F)cc1)c1ccc(F)cc1
Answer label: active
//
Molecule: CCCSP(=O)(OCC)SCCC
Answer label: active
